test: Crystallinity assessed by Debye-Scherrer photographs; assay type: physicochemical; conditions: isolated solid
Measure Name: Debye-Scherrer photograph (crystallinity)

Compound	Reported
N=C(N)c1ccc(CNC(=O)[C@@H]2C=CCN2C(=O)[C@@H](CC2CCCCC2)NCC(=O)O)cn1.O=C1NS(=O)(=O)c2ccccc21 [Saccharin salt]	crystalline
CC1=CC(=O)NS(=O)(=O)O1.N=C(N)c1ccc(CNC(=O)[C@@H]2C=CCN2C(=O)[C@@H](CC2CCCCC2)NCC(=O)O)cn1 [Acesulfame salt]	crystalline
CC(=O)O.N=C(N)c1ccc(CNC(=O)[C@@H]2C=CCN2C(=O)[C@@H](CC2CCCCC2)NCC(=O)O)cn1 [Acetate]	amorphous
N=C(N)c1ccc(CNC(=O)[C@@H]2C=CCN2C(=O)[C@@H](CC2CCCCC2)NCC(=O)O)cn1.O=C(O)/C=C/C(=O)O [Fumarate]	amorphous
